assay: Metabolic stability in mouse liver microsomes; assay type: in vitro ADME; details: read-out: MLM t1/2
measurementLabel: half-life at 1 μM (min)
Report as a plain number; the unit min is understood.

C[C@@H]1C(=O)N(C)c2ccc(-c3nc(C(=O)N4CCCN(C)CC4)nn3-c3ccccc3)cc2N1C1CCCC1 :: 22.4

We now examine a further molecule.
**Query** # lookup: half-life at 1 μM of `Cc1ccc(-n2nc(C(=O)N3CCN(C)CC3)cc2-c2ccc3c(c2)N(C2CCCC2)[C@H](C)C(=O)N3C)cc1`
**Result** 27

====

Assay: Metabolic stability in human liver microsomes
Type: in vitro ADME
Conditions: human liver microsomes 0.5 mg/ml, 1 μM compound, NADPH; read-out: HLM Clint
Protocol: The system which was 150 μl of human liver microsomes (final concentration: 0.5 mg/ml) was used for metabolic stability incubation. The system contained reduced coenzyme II (NADPH) (final concentration: 1 mM) and 1 μM compound, positive control or negative control. […] The metabolic stability of the compound was calculated by measuring the relative reduction in the original medicament. […]
// reported microsomal CLint at 1 μM for each item listed

Known results for compounds:
Cc1ccc(-n2nc(C(=O)N3C[C@@H](C)N[C@@H](C)C3)nc2-c2ccc3c(c2)N(C2CCCC2)[C@H](C)C(=O)N3C)cc1 :: 52 µL/min/mg
Cc1ccc(-n2nc(C(=O)N3CCN(C)CC3)cc2-c2ccc3c(c2)N(C2CCCC2)[C@H](C)C(=O)N3C)cc1 :: 66 µL/min/mg
C[C@@H]1C(=O)N(C)c2ccc(-c3nc(C(=O)N4CCCN(C)CC4)nn3-c3ccccc3)cc2N1C1CCCC1 :: 58 µL/min/mg

**Query** # lookup: microsomal CLint at 1 μM of `Cc1ccc(-n2nc(C(=O)N3C[C@@H](C)N[C@@H](C)C3)cc2-c2ccc3c(c2)N(C2CCCC2)[C@H](C)C(=O)N3C)cc1`
**Result** 55 µL/min/mg
